Property: pEC50; scope: individual compounds
biological target: GCase (Homo sapiens, UniProt P04062); construct: endogenous in cells; experiment: live cell PFB assay in HELA cells for activation of GCase
pEC50: −log10 of the molar value.

| compound | pEC50 |
| --- | --- |
| FC(F)Cn1ncc2ncc(N3CC[C@@H]4CN(c5ccc(C(F)(F)F)nc5)C[C@@H]4C3)nc21 (racemic) [Compound 12] | 4.30 to 5.00 |
| FC(F)Cn1ncc2ncc(N[C@@H]3C[C@@H]4CN(c5ncccc5C(F)(F)F)C[C@@H]4C3)nc21 [Compound 38] | > 5.00 |
| FC(F)Cn1ncc2ncc(N3C[C@H]4CCN(c5ccc(C(F)(F)F)nc5)C[C@H]4C3)nc21 (racemic) [Compound 20] | 4.30 to 5.00 |
| COc1nccnc1N1C[C@H]2C[C@H](Nc3cnc4cnn(CC(F)F)c4n3)C[C@H]2C1 [Compound 81] | 4.30 to 5.00 |

Entry FC(F)Cn1ncc2ncc(N3C[C@H]4CCN(c5cncc(C(F)(F)F)c5)C[C@H]4C3)nc21 (racemic) [Compound 14] ; pEC50 = 4.30 to 5.00

Entry FC(F)Cn1ncc2ncc(N3CC4CC(Oc5cc(C(F)(F)F)ccn5)CC4C3)nc21 (stereo not shown) [Compound 30] ; pEC50 = > 5.00

Entry FC(F)Cn1ncc2ncc(N3CC[C@H]4CN(c5cccc(C(F)(F)F)n5)C[C@H]43)nc21 (racemic) [Compound 59] ; pEC50 = 4.30 to 5.00

---

Property: EC50; scope: individual compounds
target: GCase (Homo sapiens, UniProt P04062); construct: endogenous in cells; assay: live cell PFB assay in HELA cells for activation of GCase

Some compounds with recorded EC50:
| compound | EC50 |
| --- | --- |
| FC(F)Cn1ncc2ncc(N3C[C@H]4CCN(c5ccc(C(F)(F)F)cn5)C[C@H]4C3)nc21 (racemic) | 10 to 50 µM |
| O=C1C2CCN(c3cnc4cnn(CC(F)F)c4n3)CC2CN1c1cccc(C(F)(F)F)n1 (stereo not drawn) | < 10 µM |
| FC(F)Cn1ncc2ncc(N[C@H]3C[C@@H]4CN(c5ncncc5C(F)(F)F)C[C@@H]4C3)nc21 | < 10 µM |
| FC(F)Cn1ncc2ncc(N3CC[C@@H]4CN(c5ccc(C(F)(F)F)cn5)C[C@H]4C3)nc21 (single isomer, unassigned) | 10 to 50 µM |
| FC(F)Cn1ncc2ncc(N[C@H]3C[C@@H]4CN(c5cncc(C(F)(F)F)n5)C[C@@H]4C3)nc21 | < 10 µM |

Entry `FC(F)Cn1ncc2ncc(N[C@@H]3C[C@@H]4CN(c5cc(C(F)(F)F)ccn5)C[C@@H]4C3)nc21` ; EC50 = < 10 µM

---

Property: EC50; scope: individual molecules
Target: GCase (Homo sapiens)
Construct: endogenous in cells
Sequence (P04062 40-536): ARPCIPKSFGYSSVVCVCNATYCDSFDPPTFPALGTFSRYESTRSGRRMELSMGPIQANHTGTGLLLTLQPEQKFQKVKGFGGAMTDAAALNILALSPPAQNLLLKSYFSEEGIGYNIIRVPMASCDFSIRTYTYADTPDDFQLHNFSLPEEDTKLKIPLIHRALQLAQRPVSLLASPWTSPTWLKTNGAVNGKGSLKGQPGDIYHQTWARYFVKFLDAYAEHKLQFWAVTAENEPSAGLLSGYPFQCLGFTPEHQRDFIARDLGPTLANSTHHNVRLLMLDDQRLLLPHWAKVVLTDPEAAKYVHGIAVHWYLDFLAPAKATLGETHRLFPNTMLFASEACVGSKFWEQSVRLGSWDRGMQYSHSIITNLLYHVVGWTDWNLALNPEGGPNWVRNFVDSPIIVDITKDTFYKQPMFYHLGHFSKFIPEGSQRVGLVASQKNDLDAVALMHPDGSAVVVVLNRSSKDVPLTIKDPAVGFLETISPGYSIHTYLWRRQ
Test: live cell PFB assay in HELA cells for activation of GCase
Method: Exemplary compounds were evaluated for activation of GCase in a live cell PFB assay in HELA cells (essentially as described in Ysselstein et al., “LRRK2 kinase activity regulates lysosomal glucocerebrosidase in neurons derived from Parkinson's disease patients” Nature Communications (2019) 10:5570). […] EC50 ranges: A: <10 μM; B: >10-50 μM; C: >50-100 μM; D: >100 μM.

Some molecules with recorded EC50:
| molecule | resultValue |
| --- | --- |
| FC(F)Cn1ncc2ncc(N[C@H]3CC[C@@H]4CN(c5cc(C(F)(F)F)ccn5)C[C@@H]4C3)nc21 (single isomer, unassigned) | < 10 µM |
| FC(F)Cn1ncc2ncc(N[C@@H]3C[C@@H]4CN(c5ccc(C(F)(F)F)cn5)C[C@@H]4C3)nc21 | < 10 µM |
| FC(F)Cn1ncc2ncc(N3C[C@H]4CCN(c5cc(C(F)(F)F)ccn5)C[C@H]4C3)nc21 (racemic) | 10 to 50 µM |
| FC(F)(F)Cn1ncc2ncc(N3CC[C@@H]4CN(c5cc(C(F)(F)F)ccn5)C[C@@H]4C3)nc21 (racemic) | 10 to 50 µM |

Entry FC(F)Cn1ncc2ncc(N3CC[C@@H]4CN(c5ccnc(C(F)(F)F)c5)C[C@@H]4C3)nc21 (racemic) ; EC50 = < 10 µM

Entry FC(F)Cn1ncc2ncc(N3C[C@H]4CCN(c5ncccc5C(F)(F)F)C[C@H]4C3)nc21 (racemic) ; EC50 = 10 to 50 µM

Entry FC(F)Cn1ncc2ncc(N[C@H]3CC[C@@H]4CN(c5cccnc5C(F)(F)F)C[C@@H]4C3)nc21 (single isomer, unassigned) ; EC50 = 10 to 50 µM

Entry O=C1[C@@H]2CN(c3cc(C(F)(F)F)ccn3)C[C@@H]2CN1c1cnc2cnn(CC(F)F)c2n1 (racemic) ; EC50 = 10 to 50 µM

Entry `FC(F)Cn1ncc2ncc(N[C@H]3C[C@@H]4CN(c5cc(C(F)(F)F)ncn5)C[C@@H]4C3)nc21` ; EC50 = < 10 µM

Entry FC(F)Cn1ncc2ncc(N[C@@H]3CC[C@@H]4CN(c5cccnc5C(F)(F)F)C[C@@H]4C3)nc21 (single isomer, unassigned) ; EC50 = > 100 µM

Entry `FC(F)Cn1ncc2ncc(N[C@H]3C[C@@H]4CN(c5cnc(C(F)(F)F)cn5)C[C@@H]4C3)nc21` ; EC50 = 10 to 50 µM
